Hello, the source for this data is patent US9566312B2, in case you need it.

# reported pIC50; entries follow
# measured.on: organic anion transporting polypeptide 1B1 (OATP1B1) (Homo sapiens (Human), UniProt Q9Y6L6)
# Sequence (Q9Y6L6 whole entry): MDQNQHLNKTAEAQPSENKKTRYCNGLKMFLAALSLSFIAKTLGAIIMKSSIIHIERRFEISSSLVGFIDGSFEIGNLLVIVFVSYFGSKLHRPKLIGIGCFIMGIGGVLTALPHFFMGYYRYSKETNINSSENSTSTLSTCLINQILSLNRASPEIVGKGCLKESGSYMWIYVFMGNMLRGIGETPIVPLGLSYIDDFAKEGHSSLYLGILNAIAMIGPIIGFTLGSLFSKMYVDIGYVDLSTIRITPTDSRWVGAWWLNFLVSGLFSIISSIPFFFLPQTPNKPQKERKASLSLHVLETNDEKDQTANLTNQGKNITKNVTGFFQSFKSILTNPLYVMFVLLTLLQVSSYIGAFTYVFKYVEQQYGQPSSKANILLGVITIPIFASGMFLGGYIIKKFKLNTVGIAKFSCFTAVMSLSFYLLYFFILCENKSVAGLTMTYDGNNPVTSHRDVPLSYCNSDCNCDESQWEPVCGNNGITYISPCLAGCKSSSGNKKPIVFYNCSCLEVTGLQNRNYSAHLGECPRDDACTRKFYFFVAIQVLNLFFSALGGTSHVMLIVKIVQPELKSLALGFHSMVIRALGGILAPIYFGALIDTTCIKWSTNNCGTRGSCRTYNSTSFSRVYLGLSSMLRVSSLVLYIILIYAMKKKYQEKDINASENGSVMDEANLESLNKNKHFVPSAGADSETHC
# experimental.details: OATP assay in CHO-OATP1B1 cells;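 also: inhibition of probe substrate uptake into the cells, ten minutes exposure, accumulated substrate read by fluorescence once cells were lysed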
pIC50: −log10 of the molar value. Starred links: 1 amine or outer side, 2 acyl side, 3 side chain; linkers in the order of their positions; H or OH if unused. Non-standard residues stand in square brackets, D forms with d. Residues, ends and D or L forms follow the SMILES beside them. X70 = C[C@H](CCCOC(=O)N1CCN(C)CC1)[C@@H](C(=O)[*:2])N(C)[*:1]; X6 = C[C@@H](CN1CCN(C2COC2)CC1)[C@@H](C(=O)[*:2])N(C)[*:1]; MeBmt = C/C=C/C[C@@H](C)[C@@H](O)[C@H](NC)C(=O)O; NMeL = CN[C@@H](CC(C)C)C(=O)O; NMeV = CN[C@H](C(=O)O)C(C)C; dNMeA = CN[C@H](C)C(=O)O; Abu = CC[C@H](N)C(=O)O

# molecule, pIC50
data = [
    ("C/C=C/C[C@@H](C)[C@@H](O)[C@H]1C(=O)N[C@@H](CC)C(=O)N(C)[C@H](C)C(=O)N(C)[C@@H]([C@@H](C)CN2CCN(C3COC3)CC2)C(=O)N[C@@H](C(C)C)C(=O)N(C)[C@@H](CC(C)C)C(=O)N[C@@H](C)C(=O)N[C@H](C)C(=O)N(C)[C@@H](CC(C)C)C(=O)N(C)[C@@H](CC(C)C)C(=O)N(C)[C@@H](C(C)C)C(=O)N1C [Compound 2.17.5] (cyclo(A[dA][NMeL][NMeL][NMeV][MeBmt][Abu][dNMeA][X6]V[NMeL]))", 5.74),
    ("C/C=C/C[C@@H](C)[C@@H](O)[C@H]1C(=O)N[C@@H](CC)C(=O)N(C)[C@H](C)C(=O)N(C)[C@@H]([C@H](C)CCCOC(=O)N2CCN(C)CC2)C(=O)N[C@@H](C(C)C)C(=O)N(C)[C@@H](CC(C)C)C(=O)N[C@@H](C)C(=O)N[C@H](C)C(=O)N(C)[C@@H](CC(C)C)C(=O)N(C)[C@@H](CC(C)C)C(=O)N(C)[C@@H](C(C)C)C(=O)N1C [Compound 2.19.7] (cyclo(A[dA][NMeL][NMeL][NMeV][MeBmt][Abu][dNMeA][X70]V[NMeL]))", 5.54),
]
